Consider the following binders; for each one, report its Relative binding activity.
Molecular target: T1, recombinant human soluble gpNMB (recombinant human gpNMB-FLAG-His) (human, UniProt Q14956 23-498)
T1 sequence: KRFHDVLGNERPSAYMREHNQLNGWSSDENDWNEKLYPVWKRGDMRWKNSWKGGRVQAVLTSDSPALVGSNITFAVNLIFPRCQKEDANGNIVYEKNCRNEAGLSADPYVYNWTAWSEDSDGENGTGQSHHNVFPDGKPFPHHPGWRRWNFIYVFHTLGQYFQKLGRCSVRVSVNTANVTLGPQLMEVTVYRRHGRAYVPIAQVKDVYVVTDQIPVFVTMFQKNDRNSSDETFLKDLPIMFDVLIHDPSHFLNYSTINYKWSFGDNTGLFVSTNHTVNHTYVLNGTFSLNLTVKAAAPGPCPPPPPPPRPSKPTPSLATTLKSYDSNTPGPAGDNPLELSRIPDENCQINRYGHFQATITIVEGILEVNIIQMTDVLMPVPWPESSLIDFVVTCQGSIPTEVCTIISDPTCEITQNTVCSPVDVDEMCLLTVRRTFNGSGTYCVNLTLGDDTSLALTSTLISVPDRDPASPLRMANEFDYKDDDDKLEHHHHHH
Assay: antigen ELISA, vs hGPN06-1_H1L1
Please give the numeric answer without any surrounding text.

Q: Complete the entry with Relative binding activity for hGPN06-1_H1L1 VH T30A (antibody, V domains shown) VH: QVQLVQSGAEVKKPGASVKVSCKASGYTFADNWMGWVKQRPGQGLEWIGAIDPSDSFTNYNQNFKGRVTMTVDTSISTAYMELSRLRSDDSAVYFCTRSGYYGSPKLGGDYWGQGTLVTVSS VL: EIVLTQSPSSLSASVGDRVTITCSASSSISYMHWYQQKSGTAPKLLIYSTSNLASGVPSRFSGSGSGTDFTFTISSLQPEDAATYYCHQWNSYPCTFGGGTKLEIK
Result: 1.23

Q: Complete the entry with Relative binding activity for hGPN06-1_H1L1 VH D52A (antibody, V domains shown) VH: QVQLVQSGAEVKKPGASVKVSCKASGYTFTDNWMGWVKQRPGQGLEWIGAIAPSDSFTNYNQNFKGRVTMTVDTSISTAYMELSRLRSDDSAVYFCTRSGYYGSPKLGGDYWGQGTLVTVSS VL: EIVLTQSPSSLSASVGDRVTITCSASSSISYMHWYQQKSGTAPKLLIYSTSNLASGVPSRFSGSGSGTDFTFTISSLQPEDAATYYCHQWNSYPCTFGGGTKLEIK
Result: 0.51

Q: Complete the entry with Relative binding activity for hGPN06-1_H1L1 VH T28A (antibody, V domains shown) VH: QVQLVQSGAEVKKPGASVKVSCKASGYAFTDNWMGWVKQRPGQGLEWIGAIDPSDSFTNYNQNFKGRVTMTVDTSISTAYMELSRLRSDDSAVYFCTRSGYYGSPKLGGDYWGQGTLVTVSS VL: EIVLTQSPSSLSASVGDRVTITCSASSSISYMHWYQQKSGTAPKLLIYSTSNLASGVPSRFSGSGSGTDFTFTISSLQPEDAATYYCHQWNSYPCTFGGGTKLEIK
Result: 1.49

Q: Complete the entry with Relative binding activity for hGPN06-1_H1L1 VH G26A (antibody, V domains shown) VH: QVQLVQSGAEVKKPGASVKVSCKASAYTFTDNWMGWVKQRPGQGLEWIGAIDPSDSFTNYNQNFKGRVTMTVDTSISTAYMELSRLRSDDSAVYFCTRSGYYGSPKLGGDYWGQGTLVTVSS VL: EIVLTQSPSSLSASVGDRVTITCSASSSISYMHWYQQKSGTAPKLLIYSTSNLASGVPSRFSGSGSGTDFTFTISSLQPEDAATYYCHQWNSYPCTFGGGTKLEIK
Result: 1.08

Q: Complete the entry with Relative binding activity for hGPN06-1_H1L1 VH I51A (antibody, V domains shown) VH: QVQLVQSGAEVKKPGASVKVSCKASGYTFTDNWMGWVKQRPGQGLEWIGAADPSDSFTNYNQNFKGRVTMTVDTSISTAYMELSRLRSDDSAVYFCTRSGYYGSPKLGGDYWGQGTLVTVSS VL: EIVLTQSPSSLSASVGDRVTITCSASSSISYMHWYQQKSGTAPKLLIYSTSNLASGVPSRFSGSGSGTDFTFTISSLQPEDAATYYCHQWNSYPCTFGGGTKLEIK
Result: 0.89
